Parameter: IC50. Scope: all listed entries.
protocol_text: Compound was tested for the inhibition of Fucosyltransferase 4 alpha 1,3 at 8.5 uM GDP-fucose
Your answer is read as µM, so omit the unit and give the number.

Reference set, count: 3
smiles_repr	measurement_unit	observed
C[C@H]1[C@@H](O)[C@H](O)[C@H](O)CN1CCCCO[C@@H]1O[C@@H](CO)[C@H](O)[C@H](O)[C@@H]1O	µM	233
Nc1nc2c(ncn2[C@@H]2O[C@H](COP(=O)(O)OP(=O)(O)O)[C@@H](O)[C@H]2O)c(=O)[nH]1	µM	5
C[C@@H]1NC[C@@H](O)[C@H](O)[C@@H]1O	µM	3500

Now look at this one.
Query: IC50; subject: C[C@H]1[C@@H](O)[C@H](O)[C@H](O)CN1Cc1ccccc1O[C@@H]1O[C@@H](CO)[C@H](O)[C@H](O)[C@@H]1O
81

---

protocol_text: Compound was tested for the inhibition of Fucosyltransferase 4 alpha 1,3 at 2 uM GDP-fucose
readout_name: IC50 (µM)
Hi! Could you send only the number? It should be in µM, unit omitted.

Field request: IC50 | item: C[C@H]1[C@@H](O)[C@H](O)[C@H](O)CN1Cc1ccccc1O[C@@H]1O[C@@H](CO)[C@H](O)[C@H](O)[C@@H]1O
50
